B1: ZNF207 (parent)
chain: YQGGPPRPPMGMRPPVMSQGGRY

# Variants of: B1
# TEST_NAME: protein stability index of a GFP-peptide fusion (GPS, HEK-293T) (PSI 1-6); higher = more stable;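 also: lentivirally expressed fusions sorted by FACS into six bins by GFP to DsRed ratio, PSI derived from sequencing read proportions per bin multiplied by bin number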
# TEST_CONTEXT: c terminus: native
Assign class by protein stability index: not lower than 2 means criterion met; lower than 2 means criterion not met.

{"MUTATION_NOTATION": "P9V", "ASSIGNED_LABEL": "criterion not met"}
{"MUTATION_NOTATION": "Q2N", "ASSIGNED_LABEL": "criterion met"}
{"MUTATION_NOTATION": "P14A", "ASSIGNED_LABEL": "criterion not met"}
{"MUTATION_NOTATION": "V16K", "ASSIGNED_LABEL": "criterion met"}
{"MUTATION_NOTATION": "Y1N", "ASSIGNED_LABEL": "criterion met"}
{"MUTATION_NOTATION": "P15E", "ASSIGNED_LABEL": "criterion met"}
{"MUTATION_NOTATION": "G20Y", "ASSIGNED_LABEL": "criterion not met"}
{"MUTATION_NOTATION": "G3E", "ASSIGNED_LABEL": "criterion met"}
{"MUTATION_NOTATION": "G3Y", "ASSIGNED_LABEL": "criterion met"}
{"MUTATION_NOTATION": "Q19H", "ASSIGNED_LABEL": "criterion met"}
{"MUTATION_NOTATION": "M12E", "ASSIGNED_LABEL": "criterion met"}
{"MUTATION_NOTATION": "G21T", "ASSIGNED_LABEL": "criterion met"}
{"MUTATION_NOTATION": "M17L", "ASSIGNED_LABEL": "criterion not met"}
{"MUTATION_NOTATION": "G11H", "ASSIGNED_LABEL": "criterion not met"}
{"MUTATION_NOTATION": "P14G", "ASSIGNED_LABEL": "criterion met"}
{"MUTATION_NOTATION": "P15K", "ASSIGNED_LABEL": "criterion not met"}
{"MUTATION_NOTATION": "Y1T", "ASSIGNED_LABEL": "criterion met"}
{"MUTATION_NOTATION": "M17W", "ASSIGNED_LABEL": "criterion not met"}
{"MUTATION_NOTATION": "Y1C", "ASSIGNED_LABEL": "criterion met"}
{"MUTATION_NOTATION": "Q2P", "ASSIGNED_LABEL": "criterion not met"}
{"MUTATION_NOTATION": "Y1G", "ASSIGNED_LABEL": "criterion met"}
{"MUTATION_NOTATION": "P8N", "ASSIGNED_LABEL": "criterion met"}
{"MUTATION_NOTATION": "M17S", "ASSIGNED_LABEL": "criterion met"}
{"MUTATION_NOTATION": "P5C", "ASSIGNED_LABEL": "criterion not met"}
{"MUTATION_NOTATION": "Q2G", "ASSIGNED_LABEL": "criterion met"}
{"MUTATION_NOTATION": "G11Y", "ASSIGNED_LABEL": "criterion met"}
{"MUTATION_NOTATION": "G11L", "ASSIGNED_LABEL": "criterion not met"}
{"MUTATION_NOTATION": "M12T", "ASSIGNED_LABEL": "criterion met"}
{"MUTATION_NOTATION": "G4R", "ASSIGNED_LABEL": "criterion met"}
{"MUTATION_NOTATION": "M17C", "ASSIGNED_LABEL": "criterion met"}
{"MUTATION_NOTATION": "V16H", "ASSIGNED_LABEL": "criterion met"}
{"MUTATION_NOTATION": "G3L", "ASSIGNED_LABEL": "criterion met"}
{"MUTATION_NOTATION": "M17Q", "ASSIGNED_LABEL": "criterion met"}
{"MUTATION_NOTATION": "M10Q", "ASSIGNED_LABEL": "criterion met"}
{"MUTATION_NOTATION": "R7E", "ASSIGNED_LABEL": "criterion met"}
{"MUTATION_NOTATION": "Y23T", "ASSIGNED_LABEL": "criterion not met"}
{"MUTATION_NOTATION": "S18H", "ASSIGNED_LABEL": "criterion not met"}
{"MUTATION_NOTATION": "Y1S", "ASSIGNED_LABEL": "criterion not met"}
{"MUTATION_NOTATION": "P9T", "ASSIGNED_LABEL": "criterion met"}
{"MUTATION_NOTATION": "G3A", "ASSIGNED_LABEL": "criterion met"}
{"MUTATION_NOTATION": "P6D", "ASSIGNED_LABEL": "criterion met"}
{"MUTATION_NOTATION": "G21P", "ASSIGNED_LABEL": "criterion met"}
{"MUTATION_NOTATION": "G21V", "ASSIGNED_LABEL": "criterion met"}
{"MUTATION_NOTATION": "P5V", "ASSIGNED_LABEL": "criterion met"}
{"MUTATION_NOTATION": "M10H", "ASSIGNED_LABEL": "criterion met"}
{"MUTATION_NOTATION": "Q19P", "ASSIGNED_LABEL": "criterion not met"}
{"MUTATION_NOTATION": "P5H", "ASSIGNED_LABEL": "criterion not met"}
{"MUTATION_NOTATION": "Q2K", "ASSIGNED_LABEL": "criterion met"}
{"MUTATION_NOTATION": "G21S", "ASSIGNED_LABEL": "criterion not met"}
{"MUTATION_NOTATION": "S18P", "ASSIGNED_LABEL": "criterion met"}
{"MUTATION_NOTATION": "Y1I", "ASSIGNED_LABEL": "criterion met"}
{"MUTATION_NOTATION": "R22T", "ASSIGNED_LABEL": "criterion not met"}
{"MUTATION_NOTATION": "P5A", "ASSIGNED_LABEL": "criterion met"}
{"MUTATION_NOTATION": "Q2A", "ASSIGNED_LABEL": "criterion met"}
{"MUTATION_NOTATION": "Q19R", "ASSIGNED_LABEL": "criterion met"}
